target entity: T1, Macaca fascicularis IL2Rγ extracellular domain expressed with a C-terminal myc-myc-hexahistidine tag (Macaca fascicularis)
T1 construct: also called mfIL-2Rg-MMH; mfIL-2RG-MMH
T1 chain: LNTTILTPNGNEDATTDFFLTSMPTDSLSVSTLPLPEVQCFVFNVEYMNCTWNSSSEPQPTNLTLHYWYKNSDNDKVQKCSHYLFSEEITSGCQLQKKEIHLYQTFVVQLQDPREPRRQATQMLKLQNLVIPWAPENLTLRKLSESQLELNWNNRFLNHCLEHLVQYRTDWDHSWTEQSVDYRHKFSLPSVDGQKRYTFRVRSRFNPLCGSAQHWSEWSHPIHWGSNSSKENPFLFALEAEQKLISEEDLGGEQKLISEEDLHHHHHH
assay: SPR Biacore 4000, mAb captured by anti-hFc, 37C, dissociation in PBS-T pH 6.0

{"binder": "H4H12889P (antibody, human IgG4 S228P, kappa, V domains shown, anti-IL2Rγ monoclonal antibody expressed with human IgG4 Fc; also called REGN7257) VH: EVQLVESGGGLVQPGGSLRLSCAASGFIFSSYEMHWVRQAPGKGLEWISYISSSGTTIYYADSVKGRFTISRDNAKNSLYLHMNSLRAEDTAVYYCTRARITGTFDVFDIWGQGTMVTVSS VL: DIQMTQSPSSLSASVGDRVTITCRASQSISSYLNWYQQKPGKAPKLLIFAASNLQSGVPSRFSGSRSGTDFTLTISSLQPEDFATYYCQQNYNIPYTFGQGTKLEIKR", "koff [s⁻¹]": 0.00183}
